biological target: ERG (Homo sapiens, UniProt P11308); assay: ERG-dependent reporter assay in HEK293 cells; assay type: cell-based; design: expressed in transfected cells; host or cells: HEK293; details: PUx3-Luc reporter, 48 hours, designated doses
Sequence (P11308 1-486 isoform P11308-3): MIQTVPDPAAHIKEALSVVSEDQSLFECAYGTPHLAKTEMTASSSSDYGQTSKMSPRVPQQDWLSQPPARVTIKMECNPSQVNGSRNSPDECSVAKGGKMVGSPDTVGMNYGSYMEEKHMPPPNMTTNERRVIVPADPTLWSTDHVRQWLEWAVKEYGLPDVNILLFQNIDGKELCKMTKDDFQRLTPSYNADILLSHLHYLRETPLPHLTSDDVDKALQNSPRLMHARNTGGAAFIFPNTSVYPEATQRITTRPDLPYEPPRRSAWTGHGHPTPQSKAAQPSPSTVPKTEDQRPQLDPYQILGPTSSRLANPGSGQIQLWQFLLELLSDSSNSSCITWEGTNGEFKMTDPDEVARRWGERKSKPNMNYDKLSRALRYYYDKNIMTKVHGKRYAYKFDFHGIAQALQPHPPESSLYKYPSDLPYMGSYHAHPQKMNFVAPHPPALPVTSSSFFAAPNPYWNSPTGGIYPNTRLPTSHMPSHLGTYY
reported.metric: ERG inhibition in ERG-dependent reporter assay

Here is how some compounds turned out for ERG inhibition in ERG-dependent reporter assay.
In [3]: df
Out[3]:
                                        mol  reported_value
0  COc1ccc(-c2nc(Cc3c[nH]c4ccccc34)oc2-c2ccc(O)cc2)cc1  ERG inhibitors
1  Oc1cccc(-c2nc(CCc3c[nH]c4ccccc34)oc2-c2cccc(O)c2)c1  ERG inhibitors
2  Clc1ccc(-c2nc(Cc3c[nH]c4ccccc34)oc2-c2ccc(Cl)cc2)cc1  ERG inhibitors
3  COc1ccc(-c2oc(Cc3c[nH]c4ccccc34)nc2-c2ccc(O)cc2)cc1  ERG inhibitors

Could you now consider this next compound?
### Prompt Tell me the measured ERG inhibition in ERG-dependent reporter assay of C(=N\c1oc(-c2ccccc2)nc1Sc1ccccc1)/c1ccccc1 , please.
### Response ERG inhibitors

---

biological target: ERG (Homo sapiens); experiment: ERG-dependent reporter assay in HEK293 cells; assay type: cell-based; design: expressed in transfected cells; host or cells: HEK293; details: PUx3-Luc reporter, 48 hours, designated doses
reported.metric: ERG inhibition in ERG-dependent reporter assay

Here is how some molecules turned out for ERG inhibition in ERG-dependent reporter assay.
>>> print(df.to_string())
                                   molecule  reported_value
0  Cc1cccc(-c2nc(Cc3c[nH]c4ccccc34)oc2-c2cccc(C)c2)c1 [Compound 651]  ERG inhibitors
1  Oc1ccc(-c2nc(Cc3c[nH]c4ccccc34)oc2-c2ccc(O)cc2)cc1 [Compound 698]  ERG inhibitors
2  Clc1ccccc1-c1nc(Cc2c[nH]c3ccccc23)oc1-c1ccccc1Cl [Compound 662]  ERG inhibitors
3  Fc1cccc(-c2nc(CCCc3c[nH]c4ccccc34)oc2-c2cccc(F)c2)c1 [Compound 673]  ERG inhibitors
4  N#CC(NC(=O)c1ccccc1)SCc1ccccc1 (centres unmarked) [Compound V154]  ERG inhibitors
5  FC(F)(F)c1ccccc1-c1nc(Cc2c[nH]c3ccccc23)oc1-c1ccccc1C(F)(F)F [Compound 659]  ERG inhibitors
6  Fc1ccccc1-c1nc(CCCc2c[nH]c3ccccc23)oc1-c1ccccc1F [Compound 678]  ERG inhibitors

Could you now consider this next molecule?
### Prompt Tell me the measured ERG inhibition in ERG-dependent reporter assay of COc1ccc2[nH]c(C)c(Cc3nc(-c4ccccc4)c(-c4ccccc4)o3)c2c1 [Compound 639] , please.
### Response ERG inhibitors

---

Biological target: human GATA2 (Homo sapiens, UniProt P23769)
Construct: expressed in transfected cells; host or cells: IHH
Sequence (P23769 1-480): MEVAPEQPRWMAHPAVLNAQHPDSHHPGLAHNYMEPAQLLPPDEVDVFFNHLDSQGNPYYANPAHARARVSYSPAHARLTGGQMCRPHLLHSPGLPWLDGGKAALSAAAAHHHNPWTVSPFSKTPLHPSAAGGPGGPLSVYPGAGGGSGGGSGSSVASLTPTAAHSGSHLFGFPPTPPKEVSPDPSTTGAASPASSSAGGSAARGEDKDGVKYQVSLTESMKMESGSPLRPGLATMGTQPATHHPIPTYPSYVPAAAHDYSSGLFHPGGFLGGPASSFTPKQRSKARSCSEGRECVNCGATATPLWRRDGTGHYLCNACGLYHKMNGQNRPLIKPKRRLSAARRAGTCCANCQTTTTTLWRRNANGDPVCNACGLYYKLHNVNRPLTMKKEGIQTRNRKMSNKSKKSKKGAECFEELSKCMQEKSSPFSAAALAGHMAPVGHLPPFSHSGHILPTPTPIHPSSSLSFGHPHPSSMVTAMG
Experiment: GATA2-dependent reporter assay in IHH cells
Assay type: cell-based
Details: GATA-Luc reporter, 48 h
Experimental: K7174 is a known GATA2 inhibitor. The IHH cells were transiently transfected with empty vector (for the NT) or human GATA2-expressing plasmid as well as pRL-TK (internal control) and GATA-Luc reporter plasmids. Cells were exposed to DMSO vehicle or compounds for 48 h. Experiments were in triplicate.
reported.metric: GATA2 inhibition in GATA2-dependent reporter assay

>>> df
                                        mol    reported_value
0  c1ccc(-c2nc(CCCc3c[nH]c4ccccc34)oc2-c2ccccc2)cc1  GATA2 inhibitors
1  O=C(/C=C(/CCc1ccccc1)c1ccccc1)N1CCC(O)(c2ccccc2)CC1  GATA2 inhibitors
2  Oc1cccc(-c2nc(CCc3c[nH]c4ccccc34)oc2-c2cccc(O)c2)c1  GATA2 inhibitors

Origin of the recorded values: patent US10844051B2
